System: normal human melanocytes
method_summary: Depigmenting activity: reduction of melanin production in normal human melanocytes in vitro
Assay type: cell-based
condition_set: Melanocyte, 72 h, 72 hours incubation, melanin by optical density, maximum concentration tested 200 μM, read-out: IC50 (concentration at which a 50% decrease in melanin synthesis is achieved)
Experimental: The measurement of the depigmenting activity (reduction of melanin production) of compounds of formula (I) was performed by assaying normal human melanocytes in vitro as follows. First, normal human melanocytes are cultured and distributed in a multiwell plate. After 24 hours, the culture medium was replaced with a medium containing the compounds of formula (I) to be evaluated. […] A dose effect was performed using a wide concentration range of the compounds evaluated. […]
# IC50 per entry
Response body: numeric value in µM, unit text excluded.

Sample records with IC50:
CC(Cc1nc2ccccc2[nH]1)c1ccc(O)cc1O (stereo not drawn)    3.7
Oc1ccc(/C=C/c2cc(O)cc(O)c2)cc1 [Compound of the prior art, reference compound]    8.18

Next item in the queue.
With normal human melanocytes as the test system, provide measured IC50 for this compound: CC(Cc1nccs1)c1ccc(O)cc1O (stereo not drawn)
5.9
